Origin of the recorded values: paper PMC5540273

Tested on: ERK2;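 note: KINOMEscan kinase panel screen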
Construct: gene MAPK1
Test context: concentration: 1 μM, replicates: in singlicate; n = 1
Give %Inh for every item shown.
Answers are plain numbers, in %.

Before answering, review these 8 worked examples.
COc1ccc(NC(=O)c2ccc(-c3cc(-c4nnc(C)o4)ccc3C)cc2)cc1: 0
COC(=O)c1cccc(NC(=O)NCCNc2ccnc(Nc3ccc(F)cc3)n2)c1: 11
Cl.O=S(=O)(c1cccc(F)c1)c1ccc(Nc2ncnc3cc(Br)sc23)cc1Cl: 0
Cc1cccc(-c2nc(Nc3ccc4[nH]nnc4c3)c3ccccc3n2)n1: 0
Fc1cccc(COc2ccc(Nc3ncnc4cc[nH]c34)cc2Cl)c1: 24
CN1c2ccc(-c3ccc(C(=O)NCCO)cc3)cc2-c2[nH]ncc2S1(=O)=O: 11
Nc1n[nH]c2nnc(-c3ccccc3)cc12: 0
Clc1ccc(-c2cc(-c3c[nH]nc3-c3ccccn3)ccn2)cc1: 0

Attention now shifts to the item below.
Q: For the compound "FC(F)(F)c1ccc(-c2cc(-c3c[nH]nc3-c3ccccn3)ccn2)cc1" , report %Inh.
Ans: 0
